These measurements were taken from PubChem BioAssay (NCI).

- Test system: HS 578T breast
- measurement_description: NCI-60 one-dose screen, 48 h (100 = growth as untreated, 0 = no growth, -100 = all killed)
- assay_context: 10 µM
Compounds without any hit were thinned out: in the full panel of roughly 83,000, 20% have a hit.
quantity_measured: growth (%)

compound: O=C1/C(=C/c2ccc([N+](=O)[O-])s2)Oc2cc(Cl)ccc21
subject_of_test: HS 578T breast
numeric_value: 1.22
--
compound: Cn1cnc([N+](=O)[O-])c1/C=C1\Oc2ccc(Br)cc2C1=O
subject_of_test: HS 578T breast
numeric_value: 103
--
compound: OC(CCN1CCCC1)(c1ccccc1)C1CCCCC1 (stereo not given)
subject_of_test: HS 578T breast
numeric_value: 103
--
compound: CCOS(=O)(=O)c1c(C(C)C)cc(C(C)C)cc1C(C)C
subject_of_test: HS 578T breast
numeric_value: 103
--
compound: Cc1cc(=O)n2nnc3cc(Cl)c(Cl)cc3n12
subject_of_test: HS 578T breast
numeric_value: 122
--
compound: CCn1c(SCCc2ccccc2)nnc1-c1nn(-c2ccc(Cl)cc2Cl)c(-c2ccc(Cl)cc2)c1C
subject_of_test: HS 578T breast
numeric_value: 98
--
compound: S=C1N(c2ccccc2)CN(C2CCCCC2)CN1c1ccccc1
subject_of_test: HS 578T breast
numeric_value: 63.2
--
compound: CCn1cc(CNc2ccc(C(=O)Nc3ccc4ccccc4c3)cc2)c(C)n1
subject_of_test: HS 578T breast
numeric_value: 105
--
compound: C1CN(CC2CCC(CN3CCOCC3)O2)CCO1 (stereo not given)
subject_of_test: HS 578T breast
numeric_value: 104
--
compound: O=S(=O)(O)c1cccc(Nc2ccc3ccccc3c2)c1
subject_of_test: HS 578T breast
numeric_value: 96.6
--
compound: CC1CCCC(C(=O)O)C1C(=O)O (stereo not given)
subject_of_test: HS 578T breast
numeric_value: 95.4
--
compound: CC[C@@H](C(=O)[C@H](C)[C@H](O)[C@@H](C)[C@H]1O[C@H]([C@@H](CC)C(=O)O)CC[C@H]1C)C1O[C@]2(C=C[C@@H](O)[C@]3(CC[C@@](C)([C@H]4CC[C@](O)(CC)[C@H](C)O4)O3)O2)[C@H](C)C[C@@H]1C (stereo not given in full)
subject_of_test: HS 578T breast
numeric_value: 21.9
--
compound: O=C(CSc1nnc(-c2cccnc2SCc2ccccc2)o1)Nc1nc(Cl)cc(Cl)n1
subject_of_test: HS 578T breast
numeric_value: 97.4
--
compound: COc1cc2cc(Oc3ccc(NC(=O)Nc4ccc(C(F)(F)F)cc4)cc3)c(C)nc2cc1OC
subject_of_test: HS 578T breast
numeric_value: 70.9
--
compound: Cc1cc(Cl)ccc1Nc1nc(C(F)(F)F)ccc1C(=O)N/N=C/c1c(Cl)cccc1Cl
subject_of_test: HS 578T breast
numeric_value: -22.1
--
compound: O=[N+]([O-])c1ccc2ncccc2c1Cl
subject_of_test: HS 578T breast
numeric_value: 67
--
compound: CCOC(=O)/C(=C(\C)N)C1CC(=O)NC1=O (stereo not given)
subject_of_test: HS 578T breast
numeric_value: 97.5
--
compound: COc1ccc2cc(-c3nc4ccccc4s3)c(Cl)nc2c1OC
subject_of_test: HS 578T breast
numeric_value: 89.9
--
compound: Cc1ccc(C)c(COc2cc(NC(=O)c3ccc4c(c3)OCO4)ccc2N(C)S(C)(=O)=O)c1
subject_of_test: HS 578T breast
numeric_value: -32.9
--
compound: O=C(CCCCC(=O)Oc1c(Cl)cc(Cl)cc1[N+](=O)[O-])Oc1c(Cl)cc(Cl)cc1[N+](=O)[O-]
subject_of_test: HS 578T breast
numeric_value: 105
--
compound: Cc1ccc(-n2c(C)nn3c(=O)c4c5c(sc4nc23)CN(C)CC5)cc1
subject_of_test: HS 578T breast
numeric_value: 107
--
compound: CC(C)(C)OC(=O)CN1CCc2c(sc3ncnc(N/N=C/c4ccccc4Br)c23)C1
subject_of_test: HS 578T breast
numeric_value: 77
--
compound: CCN1CCN(CCC(=O)Nc2cccc(-n3cc(-c4ccncc4)c(-c4ccc(Cl)c(OC)c4)n3)c2)CC1
subject_of_test: HS 578T breast
numeric_value: 13.1
--
compound: C#CCOc1c(OC)cc(C(=O)/C(C)=C/c2cccc(N=[N+]=[N-])c2)cc1OC
subject_of_test: HS 578T breast
numeric_value: 46
--
compound: O=C1CC(=O)N(C(=O)c2nn(-c3ccc(Cl)cc3)cc2O)N1
subject_of_test: HS 578T breast
numeric_value: 121
--
compound: Nc1cc(Br)c(-c2nn3c(CCC(=O)c4nc5ccccc5[nH]4)nnc3s2)c(Br)c1
subject_of_test: HS 578T breast
numeric_value: 90
--
compound: O=C(Nc1ccc(F)cc1)c1cc2ccccc2cc1O
subject_of_test: HS 578T breast
numeric_value: 87.9
--
compound: COc1cc2cc(Oc3ccc(NC(=O)c4cc(C(F)(F)F)cc(C(F)(F)F)c4)cc3)c(C)nc2cc1OC
subject_of_test: HS 578T breast
numeric_value: 73.1
--
compound: CC(=O)Oc1cc(OC(C)=O)c2ccccc2c1OC(C)=O
subject_of_test: HS 578T breast
numeric_value: 83
--
compound: CCCCC(CC)CN=C(N)NC(N)=NCCCCCCN=C(N)NC(N)=NCC(CC)CCCC (stereo not given)
subject_of_test: HS 578T breast
numeric_value: -52.6
--
compound: CCOC(=O)CN(c1sc(C)c(C)c1C(=O)OCC)S(=O)(=O)c1ccc(C)cc1
subject_of_test: HS 578T breast
numeric_value: 95.9
--
compound: NS(=O)(=O)Oc1ccc(-c2ccc3sccc3c2)cc1
subject_of_test: HS 578T breast
numeric_value: 44.6
--
compound: COc1ccc(-c2cc(-c3ccc(Cl)cc3)nc(SCCCC(=O)NO)n2)cc1
subject_of_test: HS 578T breast
numeric_value: 37.9
--
compound: COc1cc2c(cc1OC)C(C(CCCCCC(CCC(C)C)C1NCCc3cc(OC)c(OC)cc31)CCC(C)C)NCC2 (stereo not given)
subject_of_test: HS 578T breast
numeric_value: -41
--
compound: O=C(O)c1cc([N+](=O)[O-])ccc1Oc1ccccc1
subject_of_test: HS 578T breast
numeric_value: 93.8
--
compound: CN(C)c1ccc(/C=N/NC(=O)c2ccccc2Nc2cccc(C(F)(F)F)c2)cc1
subject_of_test: HS 578T breast
numeric_value: 83.5
--
compound: OCC1OC2C(NC(=S)N2c2ccccc2)C(O)C1O (stereo not given)
subject_of_test: HS 578T breast
numeric_value: 88
--
compound: CC(C)(C)OC(=O)N1CCc2c(sc3ncnc(N/N=C/c4cccc5ccccc45)c23)C1
subject_of_test: HS 578T breast
numeric_value: 17.2
--
compound: c1ccc2c(c1)Cc1ccccc1N2CCN1CCCCC1
subject_of_test: HS 578T breast
numeric_value: 113
--
compound: O=C(CN(C1CCCCC1)C1CCCCC1)Nc1ccc(S(=O)(=O)c2ccc(NC(=O)CN(C3CCCCC3)C3CCCCC3)cc2)cc1
subject_of_test: HS 578T breast
numeric_value: 33.9
